Origin of measurements: ChEMBL document CHEMBL1155688

# Species: Rattus norvegicus
# protocol_text: Inhibition of rat air pouch sPLA2 at 10 uM
quantity_measured: inhibition

compound	result
CC1(C)CCC[C@@]2(C)C1CC[C@@]1(C)c3cc[n+](CC(=O)O)cc3CCC21.[Cl-] (some centres undefined)	17.1%
CC1(C)CCC[C@@]2(C)C1CC[C@@]1(C)c3cc[n+](CCS(=O)(=O)O)cc3CCC21 (some centres undefined)	19.6%
CC(=O)OC[C@@]1(C)CCC[C@@]2(C)C1CC[C@@]1(C)c3cc[n+](CC(=O)O)cc3CCC21 (some centres undefined)	17.9%
CC1=C(CC/C(C)=C/CCC2=CC[C@H](C3=CC(=O)OC3O)O[C@@H]2O)C(C)(C)CCC1 (some centres undefined) [MANOLIDE]	38.4%

----------
# Organism: Rattus norvegicus
# protocol_text: Inhibition of rat air pouch sPLA2 at 10 uM
Quick reference for inhibition among some compounds
quantity_measured: inhibition (%)

compound	quantity_measured	result_number
C[C@]1(CO)CCC[C@]2(C)[C@H]3CC[C@@H]4C(O)O[C@@H](C5=CC(=O)OC5O)C[C@H]4[C@]3(C)CC[C@H]12 (stereo partly drawn) [PETROSASPONGIOLIDE P]	inhibition	25.6
C[C@]1(CO)CCC[C@]2(C)[C@H]3CC[C@@H]4C=C(CC(=O)O)C(=O)C[C@H]4[C@]3(C)CC[C@H]12 [PETROSASPONGIOLIDE K]	inhibition	18.8
CC1(C)CCC[C@@]2(C)C1CC[C@@]1(C)c3cc(CCC(=O)O)[n+](CC(=O)O)cc3CCC21.[Cl-] (stereo partly drawn)	inhibition	30.9

----------
# Species: Sus scrofa
# protocol_text: Inhibition of pig pancreas sPLA2 at 10 uM
Param threshold (10%) applies to inhibition; output met when value >= threshold, not met when value < threshold.

compound	group_label
CC1(C)CCC[C@@]2(C)C1CC[C@@]1(C)c3cc[n+](CCS(=O)(=O)O)cc3CCC21 (some centres not stated)	not met
CC(=O)OC[C@@]1(C)CCC[C@@]2(C)C1CC[C@@]1(C)c3cc[n+](CC(=O)O)cc3CCC21 (some centres not stated)	met
CC1(C)CCC[C@@]2(C)C1CC[C@@]1(C)c3cc(CCC(=O)O)[n+](CC(=O)O)cc3CCC21.[Cl-] (some centres not stated)	not met
CC1(C)CCC[C@@]2(C)C1CC[C@@]1(C)c3cc[n+](CC(=O)O)cc3CCC21.[Cl-] (some centres not stated)	met
C[C@]1(CO)CCC[C@]2(C)[C@H]3CC[C@@H]4C(O)O[C@@H](C5=CC(=O)OC5O)C[C@H]4[C@]3(C)CC[C@H]12 (some centres not stated) [PETROSASPONGIOLIDE P]	met
CC1=C(CC/C(C)=C/CCC2=CC[C@H](C3=CC(=O)OC3O)O[C@@H]2O)C(C)(C)CCC1 (some centres not stated) [MANOLIDE]	met
C[C@]1(CO)CCC[C@]2(C)[C@H]3CC[C@@H]4C=C(CC(=O)O)C(=O)C[C@H]4[C@]3(C)CC[C@H]12 [PETROSASPONGIOLIDE K]	met

----------
# Tested on: Naja naja
# protocol_text: Inhibition of Naja naja sPLA2 at 10 uM
Quick reference for inhibition among some molecules
quantity_measured: inhibition (%)

molecule	target_desc	result_number
CC1(C)CCC[C@@]2(C)C1CC[C@@]1(C)c3cc[n+](CCS(=O)(=O)O)cc3CCC21 (stereo partly specified)	Naja naja	0
CC1(C)CCC[C@@]2(C)C1CC[C@@]1(C)c3cc(CCC(=O)O)[n+](CC(=O)O)cc3CCC21.[Cl-] (stereo partly specified)	Naja naja	3.1
C[C@]1(CO)CCC[C@]2(C)[C@H]3CC[C@@H]4C=C(CC(=O)O)C(=O)C[C@H]4[C@]3(C)CC[C@H]12 [PETROSASPONGIOLIDE K]	Naja naja	1.3
C[C@]1(CO)CCC[C@]2(C)[C@H]3CC[C@@H]4C(O)O[C@@H](C5=CC(=O)OC5O)C[C@H]4[C@]3(C)CC[C@H]12 (stereo partly specified) [PETROSASPONGIOLIDE P]	Naja naja	8.7
CC(=O)OC[C@@]1(C)CCC[C@@]2(C)C1CC[C@@]1(C)c3cc[n+](CC(=O)O)cc3CCC21 (stereo partly specified)	Naja naja	0.4
CC1(C)CCC[C@@]2(C)C1CC[C@@]1(C)c3cc[n+](CC(=O)O)cc3CCC21.[Cl-] (stereo partly specified)	Naja naja	0.5
